Each entry below lists one item and its recorded viability, T/C value.
- Tested on: HOP-62 complex spheroids with HUVEC/MSC, viability
- Assay procedure: Anticancer human tumor HOP-62 cell line growth inhibition [RAS];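 note: spheroids exposed to agents for seven days before readout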;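 for viability, T/C: 100% = DMSO vehicle control viability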
- Stated conditions: second compound 1 µM; first compound 1 µM; stronger effect = lower value

[
  {
    "Molecule": "CCC(CC)c1cc(NC2CCC(N)C2)n2nccc2n1 (centres undefined) + C#Cc1c(F)ccc2cc(O)cc(-c3ncc4c(N5CC6CCC(C5)N6)nc(OCC56CCCN5CC(F)C6)nc4c3F)c12",
    "Parameter": "viability, T/C",
    "Recorded result": "96.7%"
  },
  {
    "Molecule": "Cc1nc(N2CCC3(CC2)COC(C)C3N)c(CO)nc1Sc1ccnc(N)c1Cl (centres undefined) + C=CC(=O)N1CCN(c2nc(OCC3CCCN3C)nc3c(F)c(-c4nc(N)cc(C)c4C(F)(F)F)c(Cl)cc23)C(C)C1",
    "Parameter": "viability, T/C",
    "Recorded result": "15.1%"
  }
]

Inquiry: Quickly give me recorded viability, T/C for CC(Nc1ccc2c(c1)OCCn1cc(N3C(=O)OCC3C(F)F)nc1-2)C(N)=O (centres undefined) + C#Cc1c(F)ccc2cc(O)cc(-c3ncc4c(N5CC6CCC(C5)N6)nc(OCC56CCCN5CC(F)C6)nc4c3F)c12
Reply text: 50.6%

Inquiry: Give viability, T/C for the following molecule: CC(Nc1ccc2c(c1)OCCn1cc(N3C(=O)OCC3C(F)F)nc1-2)C(N)=O (centres undefined) + C=CC(=O)N1CCN(c2nc(OCC3CCCN3C)nc3c(F)c(-c4nc(N)cc(C)c4C(F)(F)F)c(Cl)cc23)C(C)C1
Reply text: 29.6%

* * *

- Test system: HOP-62 complex spheroids with HUVEC/MSC, viability
- Assay procedure: Anticancer human tumor HOP-62 cell line growth inhibition [RAS];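 note: spheroids exposed to agents for seven days before readout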
- Stated conditions: curve of first compound; second compound 0.00316 µM
pIC50: −log10 of the molar value.
Parameter: pIC50

[
  {
    "Compound": "CC(=O)OC12COC1CC(O)C1(C)C(=O)C(O)C3=C(C)C(OC(=O)C(O)C(NC(=O)OC(C)(C)C)c4ccccc4)CC(O)(C(OC(=O)c4ccccc4)C21)C3(C)C (stereo not drawn) + C=CC(=O)N1CCN(c2nc(OCC3CCCN3C)nc3c(F)c(-c4nc(N)cc(C)c4C(F)(F)F)c(Cl)cc23)C(C)C1",
    "pIC50": "> 7.50"
  },
  {
    "Compound": "CCc1c2c(nc3ccc(O)cc13)-c1cc3c(c(=O)n1C2)COC(=O)[C@]3(O)CC + C=CC(=O)N1CCN(c2nc(OCC3CCCN3C)nc3c(F)c(-c4nc(N)cc(C)c4C(F)(F)F)c(Cl)cc23)C(C)C1",
    "pIC50": "> 9.02"
  }
]

# input for lookup
Inquiry: Specify measured pIC50 for CC1(C)CCC(Nc2ncc(C(F)(F)F)c(-c3c[nH]c4c(P(C)(C)=O)c(C#N)ccc34)n2)CN1 (stereo not drawn) + C=CC(=O)N1CCN(c2nc(OCC3CCCN3C)nc3c(F)c(-c4nc(N)cc(C)c4C(F)(F)F)c(Cl)cc23)C(C)C1 .
Reply text: > 9.02

* * *

- Test system: HOP-62 complex spheroids with HUVEC/MSC, viability
- Assay procedure: Anticancer human tumor HOP-62 cell line growth inhibition [RAS];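 note: spheroids exposed to agents for seven days before readout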
- Stated conditions: curve of first compound; second compound 0.01 µM
pIC50: −log10 of the molar value.
This section presents molecules with their documented pIC50 values.

Examples with answers:
[
  {
    "Molecule": "CC(=O)OC12COC1CC(O)C1(C)C(=O)C(O)C3=C(C)C(OC(=O)C(O)C(NC(=O)OC(C)(C)C)c4ccccc4)CC(O)(C(OC(=O)c4ccccc4)C21)C3(C)C (centres undefined) + C=CC(=O)N1CCN(c2nc(OCC3CCCN3C)nc3c(F)c(-c4nc(N)cc(C)c4C(F)(F)F)c(Cl)cc23)C(C)C1",
    "pIC50": "> 7.50"
  },
  {
    "Molecule": "CCc1c2c(nc3ccc(O)cc13)-c1cc3c(c(=O)n1C2)COC(=O)[C@]3(O)CC + C=CC(=O)N1CCN(c2nc(OCC3CCCN3C)nc3c(F)c(-c4nc(N)cc(C)c4C(F)(F)F)c(Cl)cc23)C(C)C1",
    "pIC50": "> 9.02"
  }
]

Inquiry: Quote pIC50 reported for NC1c2ccccc2OC12CCN(c1cnc3c(N4CCCc5ncccc54)n[nH]c3n1)CC2 (centres undefined) + C=CC(=O)N1CCN(c2nc(OCC3CCCN3C)nc3c(F)c(-c4nc(N)cc(C)c4C(F)(F)F)c(Cl)cc23)C(C)C1 please.
Reply text: > 7.50

Inquiry: Specify reported pIC50 for the molecule shown: CCN1CCN(Cc2ccc(Nc3ncc(F)c(-c4cc(F)c5nc(C)n(C(C)C)c5c4)n3)nc2)CC1 + C=CC(=O)N1CCN(c2nc(OCC3CCCN3C)nc3c(F)c(-c4nc(N)cc(C)c4C(F)(F)F)c(Cl)cc23)C(C)C1
Reply text: < 6.00

Entry source: PubChem BioAssay AID2060892
